Values were extracted from paper PMC9150124.

experiment: Plasma protein binding, rapid equilibrium dialysis; settings: SD, rat, plasma, pH 7.4, Plasma protein binding (PPB), % bound, rat plasma
observed-property: fraction unbound at 4 h, 2 µM

For the compound FC(F)(F)c1c(Cl)ccc(-n2ccnn2)c1Cl , what fraction unbound at 4 h, 2 µM is on record? 0.0552

====

experiment: Solubility in dose formulations (cosolvents); assay type: physicochemical; settings: dose formulations with cosolvents; read-out: aqueous solubility with cosolvents
observed-property: solubility
Write the numeric value and append its unit.

For the molecule FC(F)(F)c1c(Cl)ccc(-n2ccnn2)c1Cl , what solubility is on record? 1000 µg/mL

====

experiment: Solubility in dose formulations (cosolvents); assay type: physicochemical; settings: 2% DMSO in PBS (with 10% solutol v/v); read-out: Solubility
observed-property: solubility (µg/mL)
Give bare numbers, in µg/mL.

For the molecule FC(F)(F)c1c(Cl)ccc(-n2ccnn2)c1Cl , what solubility is on record? 3000
